Test system: B. subtilis
Known MIC of a selection of compounds
// note: answer is a bare numeric in µg/mL

[
  {
    "compound": "CCc1ccc(S(=O)(=O)CC(Cl)C#N)s1 (stereo not shown)",
    "study.system": "B. subtilis",
    "parameter": "MIC",
    "reported.value": 5
  },
  {
    "compound": "CCCCc1ccc(S(=O)(=O)CC(Cl)C#N)s1 (stereo not shown)",
    "study.system": "B. subtilis",
    "parameter": "MIC",
    "reported.value": 5
  },
  {
    "compound": "Cc1ccc(S(=O)(=O)CC(Cl)C#N)s1 (stereo not shown)",
    "study.system": "B. subtilis",
    "parameter": "MIC",
    "reported.value": 10
  }
]

Lab note: measured MIC of N#CC(Cl)CS(=O)(=O)c1cccs1 (stereo not shown) was 100
